# Procedure Summary: in vitro
# Parameters: species or system DENV2proHeLa (HeLa)
# Run Parameters: human, denv2prohela cells
Endpoint: CC50

- Molecule: "NC(=O)c1cccc(NC(=O)[C@@H](NC(=O)c2ccc(Nc3ccccc3)cc2)c2ccc(OCc3ccccc3)cc2)c1"
  CC50: "≥ 100 µM"

Give one value of CC50 per listed molecule.
1. NC(=O)c1cccc(NC(=O)[C@@H](NC(=O)c2ccc(-c3ccccc3)o2)c2ccc(OCc3ccccc3)cc2)c1
2. COc1ccc2cc([C@H](C)C(=O)N[C@H](C(=O)Nc3cccc(C(N)=O)c3)c3ccc(OCc4ccccc4)cc3)ccc2c1
3. COc1cc(C(=O)N[C@H](C(=O)Nc2cccc(C(N)=O)c2)c2ccc(OCc3ccccc3)cc2)ccc1Oc1ccccc1
4. NC(=O)c1cccc(NC(=O)[C@@H](NC(=O)Cc2ccccc2Nc2c(Cl)cccc2Cl)c2ccc(OCc3ccccc3)cc2)c1
5. CC(C(=O)N[C@H](C(=O)Nc1cccc(C(N)=O)c1)c1ccc(OCc2ccccc2)cc1)c1cccc(Oc2ccccc2)c1 (stereo partly drawn)

["> 100 µM", "> 100 µM", "> 100 µM", "> 50 µM", "> 50 µM"]

Reference source: paper doi:10.1101/2024.06.05.597555v1
